A collection of compounds and their measured TGI
# Tested on: MCF7 breast
# experiment: NCI tumour cell line growth inhibition, 48 h

{"compound": "CC(=O)OCC1OC(N2C(c3ccccc3)=CC(c3ccccc3)C(C#N)=C2S)C(OC(C)=O)C(OC(C)=O)C1OC(C)=O (stereo not given)", "TGI": "> 65.4 µM"}
{"compound": "S=C(/N=c1/sc(Nc2ccccc2)nc2sc3c(c12)CCCC3)Nc1ccccc1", "TGI": "> 62.5 µM"}
{"compound": "COc1cc(Cn2c(-c3ccccc3)cc3c2-c2oncc2CC3)cc(OC)c1OC", "TGI": "22.3 µM"}
{"compound": "Nc1nc(Cl)cc(NCC2(CO)CC(OCc3ccccc3)C2)n1 (stereo not given)", "TGI": "> 100 µM"}
{"compound": "Nc1ccc(C(=O)Nn2c(-c3ccccc3)nc3ccccc3c2=O)cc1", "TGI": "> 100 µM"}

Recorded TGI of C[N+](C)(N)CCC[N+](C)(C)N , please. > 100 µM

Recorded TGI of COc1cc(C2c3cc4c(cc3[C@@H](Nc3ccccc3)C3CO[C@@H](OC)[C@H]23)OCO4)cc(OC)c1O (stereo not given in full) , please. > 25 µM

Recorded TGI of O=[N+]([O-])c1ccc2nnnn2c1 , please. > 100 µM

---

# Tested on: OVCAR-8 ovarian
# experiment: NCI tumour cell line growth inhibition, 48 h
A collection of molecules and their measured TGI

# example entries with known answers
{"molecule": "CN(C)C(=S)/N=c1\\ss/c(=N\\C(=S)N(C)C)n1-c1ccc2c(c1)OCO2", "result": "> 100 µM"}
{"molecule": "CCCCCCCCCCCCCCCCOP(=O)(O)Oc1ccc(/C=C\\c2ccc(OP(=O)(O)OCCCCCCCCCCCCCCCC)cc2)cc1", "result": "56.1 µM"}
{"molecule": "NCCCNCCSSCCCCS(=O)O", "result": "> 100 µM"}
{"molecule": "CC(C)=CC(=O)N1CCN(C(=O)C=C(C)C)CC1", "result": "> 100 µM"}
{"molecule": "Cc1[nH]c(N=Nc2ccccc2)nc1N=Nc1ccccc1", "result": "53.1 µM"}

API: the following record is the query input.
Request: TGI, test system OVCAR-8 ovarian, entry Nc1nc(Cl)cc(NCC2(CO)CC(OCc3ccccc3)C2)n1 (stereo unspecified) > 100 µM

---

# System: SF-268 CNS
# experiment: NCI tumour cell line growth inhibition, 48 h
A collection of molecules and their measured TGI

{"molecule": "CCOCNC(=O)N(COCC)COCC", "testReadout": "TGI", "result": "> 100 µM"}

Recorded TGI of CO/N=C(\C(=O)Nc1cncs1)c1csc(NC(c2ccccc2)(c2ccccc2)c2ccccc2)n1 , please. > 10 µM

Recorded TGI of C[N+](C)(N)CCC[N+](C)(C)N , please. > 100 µM

Recorded TGI of CC1=C2C3=C(C)C(=O)C(C)(C)CC[C@@]3(C)[C@]2(C)CCC(C)(C)C1=O , please. > 100 µM

Recorded TGI of COc1cc([C@@H]2c3cc4c(cc3C(O[C@@H]3O[C@@H]5CO[C@@H](c6cccs6)OC5[C@H](O)[C@H]3O)C3COC(=O)[C@@H]32)OCO4)cc(OC)c1O (stereo not given in full) , please. 1.54 µM

Recorded TGI of COc1ccc(OC)c(/C=C/NC=O)c1 , please. > 100 µM

Recorded TGI of O=C(/C=C/c1ccccc1Cl)c1ccccc1Cl , please. 50.5 µM

Recorded TGI of COc1ccc2c(c1)OCc1c-2oc2ccccc2c1=O , please. > 100 µM

Recorded TGI of CCOC(=O)NC(Nc1ccc(S(=O)(=O)Nc2ncccn2)cc1)(C(=O)OCC)C(F)(F)F (stereo not given) , please. > 100 µM

Recorded TGI of COC(=O)CCC(=O)NC1c2cccc3cccc(c23)Cn2c(=O)n(C)c(=O)n21 (stereo not given) , please. > 100 µM

---

A collection of compounds and their measured GI50
# Test system: SN12C renal
# experiment: NCI tumour cell line growth inhibition, 48 h

# example entries with known answers
{"compound": "C=C1C(=O)O[C@H]2[C@H]1CC/C(COC(=O)/C=C\\C(=O)NCc1ccc(Cn3c(=O)sn(-c4ccc(C#N)cc4)c3=O)cc1)=C\\CC[C@@]1(C)O[C@@H]21", "result": "0.671 µM"}
{"compound": "Cc1cc(C)cc(Nc2cc(C)nc3nc(C(F)(F)F)nn23)c1", "result": "> 100 µM"}
{"compound": "CCCCCCCCCCC(O)C1CCC(C2CCC(C(O)CCCCC(O)CCCCCC(O)CC3=CC(C)OC3=O)O2)O1 (centres undefined)", "result": "> 25 µM"}

Recorded GI50 of COc1ccc(-c2nc(-c3nc4ccc(C)cc4[nH]3)c3ccccn23)cc1 , please. 3.08 µM

Recorded GI50 of Cc1cc(C2CCCCC2)n(O)c(=O)c1 , please. 1.45 µM

Recorded GI50 of COC(=O)c1cc2c(c(C(=O)OC)c1O)C(=O)C=CC2=O , please. > 9.1 µM

Recorded GI50 of COc1cccc(NCc2nnc(Nc3ccc(Cl)cc3)c3ccccc23)c1 , please. 2.52 µM

Recorded GI50 of Nc1nccc(-c2c(-c3ccc(F)cc3)ncn2CCCN2CCOCC2)n1 , please. > 25 µM

Recorded GI50 of CCCCNC(=O)NS(=O)(=O)c1ccc(N2N=C(c3ccc(C)cc3C)CC2c2ccc(N(C)C)cc2)cc1 (centres undefined) , please. 3.07 µM

---

A collection of molecules and their measured GI50
# Tested on: OVCAR-8 ovarian
# experiment: NCI tumour cell line growth inhibition, 48 h

# example entries with known answers
{"molecule": "O=C(C[C@@H](C(=O)NCc1cccc(C(F)(F)F)c1)N1C(=O)[C@@H](N2C(=O)OC[C@@H]2c2ccccc2)[C@H]1/C=C/c1ccccc1)NC1CCN(Cc2ccccc2)CC1", "testedSystem": "OVCAR-8 ovarian", "GI50": "3080 nM"}
{"molecule": "CN1C(NC(=O)c2ccc(Cl)nc2)=NS(=O)(=O)c2cc(Cl)ccc21", "testedSystem": "OVCAR-8 ovarian", "GI50": "> 100000 nM"}
{"molecule": "C[C@]12CC[C@@H]3c4ccc(Oc5nc(N6CC6)nc(N6CC6)n5)cc4CC[C@H]3[C@@H]1CCC2=O", "testedSystem": "OVCAR-8 ovarian", "GI50": "2640 nM"}
{"molecule": "CCOC(=O)c1c(C)n(Cc2ccc(OC)cc2)c2c1cc(O)c1[nH]c3c(c12)CCCC3", "testedSystem": "OVCAR-8 ovarian", "GI50": "3050 nM"}
{"molecule": "CCCNC(=S)N/N=C(\\C)c1ccccn1", "testedSystem": "OVCAR-8 ovarian", "GI50": "66.7 nM"}

API: the following record is the query input.
Recorded GI50 of CC12CCCC(CC(=O)c3[nH]c4ccccc4c31)C2 (centres undefined) , please. 2010 nM

---

A collection of compounds and their measured GI50
# Test system: MDA-MB-435

{"smi": "Cn1cc(-c2csc(-c3cccc(F)c3)n2)c2cccnc21", "GI50": "14.4 µM"}

Request: GI50, test system MDA-MB-435, entry COc1cc2c(/C=C3/C(=O)Nc4cccc(Cl)c43)c(Cl)n(Cc3ccccc3)c2cc1C 1.11 µM

Request: GI50, test system MDA-MB-435, entry COc1cc(C(=O)O[C@H](C(N)=O)[C@]2(C)CO2)c2ccccc2c1 23.7 µM

Request: GI50, test system MDA-MB-435, entry Cn1cc(C2=C(c3cn(CCCN=C(N)N)c4ccccc34)C(=O)NC2=O)c2ccccc21 > 25 µM

Request: GI50, test system MDA-MB-435, entry COc1ccc2cc(C(=O)/C=C/c3cccc(OC)c3OC)ccc2c1 5.16 µM

---

# System: SF-268 CNS
# experiment: NCI tumour cell line growth inhibition, 48 h
A collection of compounds and their measured TGI

# example entries with known answers
{"compound": "Cc1cc(C)cc(Nc2nnc3n2S(=O)(=O)c2cc(C#N)c(Cl)cc2S3)c1", "testedSystem": "SF-268 CNS", "result": "5.48 µM"}
{"compound": "CCOC(=O)c1c(SC(=O)/C=C/c2ccccc2)n(-c2ccccc2)c(=S)n(-c2ccccc2)c1=O", "testedSystem": "SF-268 CNS", "result": "> 100 µM"}

Recorded TGI of COc1ccc(OC(=O)O[C@H]2[C@H](O[C@H]3[C@@H](O)COC(O[C@H]4C[C@H]5[C@@H]6CC=C7C[C@@H](O)CC[C@]7(C)[C@H]6CC[C@]5(C)[C@H]4[C@H](C)C(=O)CCC(C)C)[C@@H]3OC(C)=O)OC[C@@H](O)[C@@H]2O)cc1 (stereo partly specified) , please. 6.99 µM

Recorded TGI of Cc1ccc(C(=O)/C=C/c2ccccc2O)c(C)c1 , please. > 100 µM

Recorded TGI of O=C1NNC(=O)C2C3c4ccccc4C(c4ccccc43)C12 (stereo unspecified) , please. > 100 µM

Recorded TGI of COC1(OC)C2(Cl)CCC1(Cl)C(OC(C)=O)C2 (stereo unspecified) , please. > 100 µM

Entry source: PubChem BioAssay (NCI)
